Reference for the values: patent US10774051B2

Biological target: human P2X7 receptor (Homo sapiens, UniProt Q99572, R270H/Y155H)
Experiment: Evaluation of human P2X7 receptor inhibitory activity (Yo-Pro uptake, BzATP stimulation, FLIPR TETRA)
Format: cell-based
Conditions: 1321N1 cells stably expressing human P2X7 receptor; BzATP stimulation, Yo-Pro uptake; read-out: IC50 (antagonistic activity for the human P2X7 receptor)
Experimental: Stably expressing cell line (1321N1 cell transfected with the human P2X7 receptor gene (GenBank accession number NM_002562.5 including T606C and G952A SNP)) was used. […] Measurement of fluorescence intensity by FLIPR TETRA was started. […] Changing values of fluorescence intensity by the compound of the present invention were calculated by difference between maximum and minimum fluorescence intensity for 20 minutes. Inhibition ratios (%) were calculated from the following equation: […]
Mark True only for IC50 values smaller than 20 nM; exact matches and larger values are False.

COc1cc(C)c(Nc2nc(=O)c(OC)cn2Cc2cc(F)cc(Cl)c2)cc1OC	False
COc1ccccc1Nc1nc(=O)c(OC)cn1Cc1ccc(F)c(F)c1	False
Cc1ccc(N2CCCS2(=O)=O)cc1Nc1nc(=O)c(F)cn1Cc1ccc(F)cc1	True
COc1cn(Cc2ccccc2)c(Nc2cccc3sccc23)nc1=O	False
COc1cn(Cc2ccccc2)c(Nc2cccc3c2CCCC3)nc1=O	False
Cc1ccc(C)c(Nc2nc(=NO)c(F)cn2Cc2cc(F)c(F)c(F)c2)c1	False
COc1cn(Cc2ccc(F)cc2)c(Nc2cc3sc(C)nc3cc2C)nc1=O	True
COc1cn(Cc2cc(F)cc(F)c2)c(Nc2ccc3ncsc3c2C)nc1=O	False
COc1cn(Cc2cccc(C(F)(F)F)c2)c(Nc2cccc(Cl)c2C)nc1=O	False
COc1cn(Cc2ccccc2)c(NC2CCc3ccccc3C2)nc1=O (centres unmarked)	False
CCOc1ccc(Nc2nc(=O)c(OC)cn2Cc2cc(F)c(F)c(F)c2)c(C)c1	True
COc1cn(Cc2cc(F)cc(F)c2)c(Nc2ccc3c(c2C)COC3)nc1=O	True
COc1cn(Cc2ccccc2)c(Nc2ccc3nc(C)sc3c2C)nc1=O	True
COc1cn(Cc2cc(F)c(F)c(F)c2)c(Nc2cc3c(cc2C)COC3)nc1=O	True
Cc1nc2cc(C)c(Nc3cc(=O)n(C)c(=O)n3Cc3cc(F)c(F)c(F)c3)cc2s1	False
Cc1c(Cl)cccc1Nc1nc(=O)c(N)cn1Cc1ccccc1	True
COc1cn(Cc2ccc(F)c(Cl)c2)c(Nc2cc3c(cc2C)OCCC3)nc1=O	False
